Overview of recorded IC50 for various compounds
tgt: human TLR8 (Homo sapiens (Human), UniProt Q9NR97)
Sequence (Q9NR97 27-1041): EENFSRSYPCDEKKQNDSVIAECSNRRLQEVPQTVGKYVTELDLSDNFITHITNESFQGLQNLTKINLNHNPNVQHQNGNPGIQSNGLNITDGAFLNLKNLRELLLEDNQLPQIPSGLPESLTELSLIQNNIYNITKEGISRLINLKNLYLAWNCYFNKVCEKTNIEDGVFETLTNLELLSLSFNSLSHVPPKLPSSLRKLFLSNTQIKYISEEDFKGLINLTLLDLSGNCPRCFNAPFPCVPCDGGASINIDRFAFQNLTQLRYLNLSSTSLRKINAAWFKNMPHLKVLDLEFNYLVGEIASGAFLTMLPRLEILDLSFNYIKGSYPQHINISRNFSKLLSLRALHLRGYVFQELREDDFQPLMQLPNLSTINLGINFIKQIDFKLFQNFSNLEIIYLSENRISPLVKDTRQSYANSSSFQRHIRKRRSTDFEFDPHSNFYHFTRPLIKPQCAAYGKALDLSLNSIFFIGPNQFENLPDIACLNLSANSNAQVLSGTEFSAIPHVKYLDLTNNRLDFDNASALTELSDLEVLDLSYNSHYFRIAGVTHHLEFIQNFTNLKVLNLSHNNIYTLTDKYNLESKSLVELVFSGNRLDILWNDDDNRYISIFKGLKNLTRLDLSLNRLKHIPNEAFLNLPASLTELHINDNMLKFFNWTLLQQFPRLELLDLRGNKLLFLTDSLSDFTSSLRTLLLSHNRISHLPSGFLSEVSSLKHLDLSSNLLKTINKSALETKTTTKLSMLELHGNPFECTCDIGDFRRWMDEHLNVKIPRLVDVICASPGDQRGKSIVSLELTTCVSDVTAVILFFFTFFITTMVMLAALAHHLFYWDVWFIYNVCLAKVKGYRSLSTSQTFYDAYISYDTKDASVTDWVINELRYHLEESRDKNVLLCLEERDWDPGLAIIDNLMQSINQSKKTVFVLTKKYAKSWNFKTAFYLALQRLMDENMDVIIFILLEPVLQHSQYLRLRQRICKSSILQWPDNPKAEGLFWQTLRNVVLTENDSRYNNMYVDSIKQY
assay-info: TLR8 inhibition reporter assay (HEK-Blue cells, SEAP reporter, R848 stimulation);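 note: compounds tested from 0.05 nM to 50 µM, 22 h at 37 °C, SEAP measured with HEK-Blue Detection, inhibition relative to agonist plus DMSO versus a known inhibitor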
condition-summary: read-out: TLR8 IC50, HEK-Blue cells, R848 15.9 μM
Quick note: give the figure in µM, leave out the unit.

Previously resolved entries follow.
>  <compound>
Cc1cc(-c2[nH]c3ccc(C4CCN(C(C)CF)CC4)cc3c2C(C)C)c(C)cn1 (centres unmarked)

>  <IC50, µM>
0.0041

$$$$
>  <compound>
Cc1cc(-c2[nH]c3cc(F)c(C4CCN(C5CC(C)OC(C)C5)CC4)cc3c2C(C)C)cc(C)n1 (centres unmarked) [Example 830]

>  <IC50, µM>
0.0173

$$$$
>  <compound>
Cc1cc(-c2[nH]c3ccc(C4CCN(C(=O)C(=O)O)CC4)cc3c2C(C)C)cc(C)n1

>  <IC50, µM>
0.539

$$$$
>  <compound>
Cc1cc(-c2[nH]c3ccc(C4CCN(CC5CCN(C(C)C)CC5)CC4)c(F)c3c2C(C)C)ccn1

>  <IC50, µM>
0.0336

$$$$
>  <compound>
Cc1cc(-c2[nH]c3ccc(C4CCN(C5CCN(C(C)C)CC5)CC4)cc3c2C)ccn1

>  <IC50, µM>
0.0472

$$$$

The value of IC50 measured for the compound Cc1c(-c2ccncc2)[nH]c2ccc(C3CCN(C4CCN(C(C)C)CC4)CC3)cc12 turned out to be 0.0284

The value of IC50 measured for the compound Cc1cc(-c2[nH]c3ccc(C4CCN(C5CCN(CC(C)C)CC5)CC4)cc3c2C)ccn1 turned out to be 0.0162

The value of IC50 measured for the compound Cc1cc(-c2[nH]c3cc(F)c(C4CCN(CC(=O)N(C)C)CC4)cc3c2C(C)C)c(F)cn1 turned out to be 0.0118
